molecular target: T1, SARS-CoV-2 receptor binding domain (RBD), wild type, His-tagged (BEI NR52309) (SARS-CoV-2, UniProt P0DTC2 319-541); assay: RBD KD column; method and antibody format not stated
T1 construct: also called WT RBD
Would you kindly list Kd for each of these binders?
Numbers only, in nM.

# example entries with known answers
binder: mAb 158 (antibody, V domains shown, also called IgG 158) VH: QVQLVQSGAEVKKPGASVKVSCKASGYTFTGYYMHWVRQAPGQGLEWMGWINPLNGGTNFAPKFQGRVTMTRDTSTSTVYMELSSLRSEDTAVYYCARDPGGSYSNDAFDIWGQGTLVTVSS VL: DIQMTQSPSSLSASVGDRVTITCRASQSISRYLNWYQQKPGKAPKLLIYDASNLESGVPSRFSGSGSGTDFTLTISSLQPEDFATYYCQQANSFPLTFGGGTKVDIKR
quantityMeasured: Kd
uom: nM
assayResult: 172
//
binder: mAb 254 (antibody, V domains shown, also called IgG 254) VH: EVQLLESGGGLVQPGGSLRLSCAASGFTFSSSAMHWVRQAPGKGLEWVSAIGTGGDTYYADSVKGRFTISRDNSKNTLYLQMNSLRAEDTAVYYCAREGDGYNFYFDYWGQGTLVTVSS VL: DIQMTQSPSSLSASVGDRVTITCRASQGISSYLAWYQQKPGKAPKLLIYDASSLQIGVPSRFSGSGSGTDFTLTISSLQPEDFATYYCLQSYSTPPWTFGQGTKVEIKR
quantityMeasured: Kd
uom: nM
assayResult: 127
//
binder: mAb 82 (antibody, V domains shown, also called IgG 82) VH: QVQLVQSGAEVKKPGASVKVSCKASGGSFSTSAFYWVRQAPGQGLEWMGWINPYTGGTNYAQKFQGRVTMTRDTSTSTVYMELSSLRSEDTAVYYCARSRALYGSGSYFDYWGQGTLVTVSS VL: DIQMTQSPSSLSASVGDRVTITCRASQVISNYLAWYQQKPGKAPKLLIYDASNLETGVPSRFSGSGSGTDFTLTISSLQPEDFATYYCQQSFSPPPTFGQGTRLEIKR
quantityMeasured: Kd
uom: nM
assayResult: 206

Please give Kd for each item listed below.
1. mAb 56 (antibody, V domains shown, also called IgG 56) VH: QVQLVQSGAEVKKPGASVKVSCKASGYTFTSYGISWVRQAPGQGLEWMGWISAYNGNTNYAQKLQGRVTMTRDTSTSTVYMELSSLRSEDTAVYYCARDIGPIDYWGQGTLVTVSS VL: DIQMTQSPSSLSASVGDRVTITCRASQGISSYLAWYQQKPGKAPKLLIYDASNLQSGVPSRFSGSGSGTDFTLTISSLQPEDFATYYCQQANSFPSTFGQGTKVEIKR
2. mAb 108 (antibody, V domains shown) VH: QVQLVQSGAEVKKPGASVKVSCKASGYIFSRYAIHWVRQAPGQGLEWMGWMNPISGNTDYAPNFQGRVTMTRDTSTSTVYMELSSLRSEDTAVYYCAKDGSQLAYLVEYFQHWGQGTLVTVSS VL: DIQMTQSPSSLSASVGDRVTITCRASQVITNNLAWYQQKPGKAPKLLIYDASTLETGVPSRFSGSGSGTDFTLTISSLQPEDFATYYCQQSYTFPYTFGQGTKVEIKR

Output line:
[23, 72]
